Tested on: L1210
EXPERIMENT: Antitumor activity against mouse L1210 cells allografted in BDF1 mouse assessed as increase of host life span at 200 mg/kg, po qd for 5 days
Format: functional
Kindly state Activity for each of the entries shown.
Answers are plain numbers, in %.

A selection of reference data follows.
{"columns": ["SMILES_CODE", "Activity [%]"],
 "data": [
  ["CC(C)(C)c1ccc(C(=O)OC[C@H]2O[C@@H]3[C@H](Oc4nc(=N)ccn43)[C@@H]2OC(=O)c2ccc(C(C)(C)C)cc2)cc1.Cl", 26.7],
  ["F[B-](F)(F)F.[NH2+]=c1ccn2c(n1)O[C@@H]1[C@H](OC(=O)CCCl)[C@@H](COC(=O)CCCl)O[C@H]12", 38.5],
  ["CCCCCCCC(=O)O[C@H]1[C@H]2Oc3nc(=N)ccn3[C@@H]2O[C@@H]1COP(=O)(O)O", 50.7]
]}

Now take the following compound into account.
The compound identified as "Cc1ccc(C(=O)OC[C@H]2O[C@@H]3[C@H](Oc4nc(=N)ccn43)[C@@H]2OC(=O)c2ccc(C)cc2)cc1.Cl" registered its Activity at 30.7

----------
Test system: L1210
EXPERIMENT: Antitumor activity against mouse L1210 cells allografted in BDF1 mouse assessed as increase of host life span at 100 mg/kg, ip qd for 5 days
Format: functional
EXPERIMENTAL_SETUP: route intraperitoneal
QUANTITY: Activity

Answered cases to consult:
{"columns": ["SMILES_CODE", "Activity"],
 "data": [
  ["Cl.N=c1ccn2c(n1)O[C@@H]1[C@H](OC(=O)/C=C/c3ccco3)[C@@H](COC(=O)/C=C/c3ccco3)O[C@H]12", "54.7%"],
  ["CCOC(=O)CCCCCCCCCCCCCCC(=O)OC[C@H]1O[C@@H]2[C@H](Oc3nc(=N)ccn32)[C@@H]1OC(=O)CCCCCCCCCCCCCCC(=O)OCC.Cl", "37.3%"]
]}

Go through the items and report each one's Activity.
1. F[B-](F)(F)F.[NH2+]=c1ccn2c(n1)O[C@@H]1[C@H](OC(=O)CCCCCN3C(=O)c4ccccc4C3=O)[C@@H](COC(=O)CCCCCN3C(=O)c4ccccc4C3=O)O[C@H]12
2. F[B-](F)(F)F.[NH2+]=c1ccn2c(n1)O[C@@H]1[C@H](OC(=O)CCCCCCCCCCNC(=O)c3ccccc3)[C@@H](COC(=O)CCCCCCCCCCNC(=O)c3ccccc3)O[C@H]12
3. CCCC(=O)NCCCCCCCCCCC(=O)OC[C@H]1O[C@@H]2[C@H](Oc3nc(=N)ccn32)[C@@H]1OC(=O)CCCCCCCCCCNC(=O)CCC.Cl
4. Cl.N=c1ccn2c(n1)O[C@@H]1[C@H](O)[C@@H](CO)O[C@H]12
5. CCOC(=O)CCC(=O)OC[C@H]1O[C@@H]2[C@H](Oc3nc(=N)ccn32)[C@@H]1OC(=O)CCC(=O)OCC.Cl
6. Cl.N=c1ccn2c(n1)O[C@@H]1[C@H](OC(=O)CCNC(=O)c3ccccc3)[C@@H](COC(=O)CCNC(=O)c3ccccc3)O[C@H]12

1. 60.3%
2. >292.3%
3. 92.3%
4. 76.9%
5. 35.4%
6. 32.1%

Please supply Activity for each of the following items, keeping them in order.
1. CCOCCC(=O)OC[C@H]1O[C@@H]2[C@H](Oc3nc(=N)ccn32)[C@@H]1OC(=O)CCOCC.Cl
2. Cc1ccc(C(=O)OC[C@H]2O[C@@H]3[C@H](Oc4nc(=N)ccn43)[C@@H]2OC(=O)c2ccc(C)cc2)cc1.Cl

1: 57.5%; 2: 81.3%

Provide Activity for all items below, preserving their order.
1. CCCC(=O)OCCCCCCCCCCC(=O)OC[C@H]1O[C@@H]2[C@H](Oc3nc(=N)ccn32)[C@@H]1OC(=O)CCCCCCCCCCOC(=O)CCC.Cl
2. CCCCCCCCCCCOC(=O)CCC(=O)OC[C@H]1O[C@@H]2[C@H](Oc3nc(=N)ccn32)[C@@H]1OC(=O)CCC(=O)OCCCCCCCCCCC.Cl

86.7%
94.6%

Quick batch: Activity for everything below.
1. CC(=O)O[C@H]1[C@H]2Oc3nc(=N)ccn3[C@@H]2O[C@@H]1COP(=O)(O)O
2. F[B-](F)(F)F.[NH2+]=c1ccn2c(n1)O[C@@H]1[C@H](OC(=O)CCCCCCCCCCN3C(=O)c4ccccc4C3=O)[C@@H](COC(=O)CCCCCCCCCCN3C(=O)c4ccccc4C3=O)O[C@H]12
3. C=CCCCCCCCCC(=O)OC[C@H]1O[C@@H]2[C@H](Oc3nc(=N)ccn32)[C@@H]1OC(=O)CCCCCCCCC=C.Cl
4. Cl.N=c1ccn2c(n1)O[C@@H]1[C@H](OC(=O)c3ccc(F)cc3)[C@@H](COC(=O)c3ccc(F)cc3)O[C@H]12
5. CCCCCCCCCCCCCCCC(=O)OC[C@H]1O[C@@H]2[C@H](Oc3nc(=N)ccn32)[C@@H]1OC(=O)CCCCCCCCCCCCCCC.Cl
6. Cc1ccc(S(=O)(=O)NCCCCCCCCCCC(=O)OC[C@H]2O[C@@H]3[C@H](Oc4nc(=[NH2+])ccn43)[C@@H]2OC(=O)CCCCCCCCCCNS(=O)(=O)c2ccc(C)cc2)cc1.F[B-](F)(F)F
7. CCCCCCCCCCCCCCCC(=O)O[C@H]1[C@H]2Oc3nc(=N)ccn3[C@@H]2O[C@@H]1COP(=O)(O)O
8. CCCCCCCC(=O)O[C@H]1[C@H]2Oc3nc(=N)ccn3[C@@H]2O[C@@H]1COP(=O)(O)O

1: 57.3%; 2: >510.3%; 3: 97.5%; 4: 47.4%; 5: >528.2%; 6: 140%; 7: >441.1%; 8: 76%

Please state Activity for every compound in the list that follows.
1. CCCCSCCCCCCCCCCC(=O)OC[C@H]1O[C@@H]2[C@H](Oc3nc(=N)ccn32)[C@@H]1OC(=O)CCCCCCCCCCSCCCC.Cl
2. Cl.N=c1ccn2c(n1)O[C@@H]1[C@H](OC(=O)CCCCCCCCCCBr)[C@@H](COC(=O)CCCCCCCCCCBr)O[C@H]12
3. F[B-](F)(F)F.[NH2+]=c1ccn2c(n1)O[C@@H]1[C@H](OC(=O)CCN3C(=O)c4ccccc4C3=O)[C@@H](COC(=O)CCN3C(=O)c4ccccc4C3=O)O[C@H]12

>624.3%
145.9%
39.7%

Field: Activity. Fill in for each record below.
1. Cc1ccc(S(=O)(=O)NCCC(=O)OC[C@H]2O[C@@H]3[C@H](Oc4nc(=[NH2+])ccn43)[C@@H]2OC(=O)CCNS(=O)(=O)c2ccc(C)cc2)cc1.F[B-](F)(F)F
2. CCOc1ccc(C(=O)OC[C@H]2O[C@@H]3[C@H](Oc4nc(=N)ccn43)[C@@H]2OC(=O)c2ccc(OCC)cc2)cc1.Cl

47.5%
67.5%
